The origin of these recorded values is the supplement of paper PMC10201428.

B1: library; a variant is named by its letters at N, in order (parent)
chain: AATGTTGTTGATGCAACCATAAAGTGATATTTAATAATTATTTATAATCAGCAACTTAACCACAAAACAACCATATATTGATATNTCACAAAACAACCATAANTTGATATTTTTGTGAATCGAGTATTTCAGCAAAACTACTGCAGTAAGAA

- Variants of: B1
- assayProcedure: relative integration efficiency (T-LR orientation) vs wild-type transposon end (log2 (normalized fold change)); transposon end mutated: left end; higher = more efficient transposition
- details: with VchCAST RNA-guided transposition machinery (E. coli BL21(DE3) host, lacZ target)
Kindly supply the reported relative integration efficiency (log2) values for the records listed here.
One number for each entry.

Below: 2 variants and their reported relative integration efficiency (log2).
# mutantId, relative integration efficiency (log2)
records = [
    ("CG T84C", -0.172),
    ("CG T20A", -0.647),
]

Hi team, please reply with relative integration efficiency (log2) for each item in this list.
1. CG T114A G115C T116A G117C
2. CG T12G G13T
3. CG C89A A90C
4. CG C71G C72G
5. CG A92C A93C
6. CG T79G G80T

Response given:
-0.217
-0.641
0.0275
-1.67
-0.222
-0.966
